Origin of measurements: the supplement of paper PMC12764529

# assay.comment: folding stability dG unfold from chymotrypsin proteolysis; higher = more stable
measured.quantity: folding stability dG unfold (kcal/mol)
Supply the numeric figure in kcal/mol, leaving out any unit text.

Lookup: folding stability dG unfold for SAGGSAGGSAGGSWITFRIPEGNPEFIEELARGFGIKPKRINPNRGTITIKLPPGAKIVSAGGSAGGSAGGS [r4_3_TrROS] ?
Found: 0.645

Lookup: Reported folding stability dG unfold for SAGGSAGGSAGGMKIIKLEDDYYLIPFDSPEQLKAYTDIFEKLGLPVVVLPDGRLLVKGSAGGSAGGSAGGS [r10_1027_TrMRF] : what is it?
Found: 2.52

Lookup: Data request, read-out folding stability dG unfold, for SAGGIKIERDPNMWKFEIPLPNKPLTIHISQSDGRYTIAIYENGKPIRTVPFPGPVDDAIERALKKLSAGGS [r8_276_TrROS]
Found: 2.05

Lookup: Returns the measured folding stability dG unfold for the input sequence. Input: NPGKPLEIDIEVDIFEFPGGKFAIITFPIRLPGNGYWVQIEFWINPDGGLVMKIDVYDPGNGKPEEITIPIS [r1_261_TrROS]
Found: 5.04

----------
# assay.comment: folding stability dG unfold (combined trypsin and chymotrypsin); higher = more stable
Assignment: determine reported folding stability dG unfold for the given sequences.
Reply numerically in kcal/mol, unit not repeated.

Lookup: folding stability dG unfold for SAGGSAGGSAGDPKKKPPKPILGFELAEFEITTEDGTKYKVKALIIYFPDTGTKVIFVLGSAGGSAGGSAGG [r11_1024_TrMRF] ?
Found: 4.33

Lookup: I am curious: what folding stability dG unfold value has been reported for SAGGGNVTKTSTTTLPNGTTLVTYTGTSPSSAGSKNLSLLSLPFDVTVTKVEFDPNTGKVTIETVIPPSAGG [r13_413_JUSTAS] ?
Found: 0.978

Lookup: Item under review: SAGGMTTTTTLEVAPDTPYEAALAEIEAALAAAAAGRPVASSPVAARPGGARTLPLVVTDGAVTALGSAGGS [r8_7_JUSTAS] . Reported folding stability dG unfold?
Found: 0.35

Lookup: # folding stability dG unfold lookup, item SAGGEMVTIRVRAPDPEKLIEALREEFPEGLTIRPFPRPTPDGYEVLIVVPAERPEELLEAVERAIGSAGGS [r16_43_TrMRF]
Found: 2.13

Lookup: Which value of folding stability dG unfold has been reported for SAGGSAGGWIEIDPETGTIEIWMPPNDIEPLVDEIAEELGWKVKVKVEPNPEGWVRHTITIPPKSAGGSAGG [r6_419_TrROS] in the records?
Found: 0.39

----------
I'd appreciate it if you could supply folding stability dG unfold values for the items below.
# assay.comment: folding stability dG unfold (combined trypsin and chymotrypsin); higher = more stable
Could you give me the number in kcal/mol? Just the number is fine.

Lookup: # input sequence: SAGGSAGGSPIKIEFPPGIKEIEPIENDPNKTIMFRFPDYLVRIRINPKNGKIDIEIVPPGDMSAGGSAGGS [r12_858_TrROS] ; wanted: its folding stability dG unfold
Found: 1.82

Lookup: Value lookup for folding stability dG unfold; key = SAGGSAGGSKKKKKKVKKKKVYRVKIKTKDGKLIEIEVSVEDLEKIKKAAEKAGFEIVEIEPVSAGGSAGGS [r12_891_TrROS_Hall]
Found: 3.42

Lookup: Fill in the blank: the reported folding stability dG unfold of SAGGSAGGSGDGDYKNDPNGEQERKPKPPPVPPILVFKVELDIDANGNLDLSPDLGWFPPDAISAGGSAGGS [r12_1027_TrROS] is ____.
Found: 1.42

Lookup: Requested read-out: folding stability dG unfold. Entry: SAGWKLKIESPNGAEIEINPESGMIDVKNPDNGQPWSVMIPPENPGEINIFNPGDGEPLQPFKIDEIEPSAG [r5_761_TrROS]
Found: 0.111

----------
# assay.comment: folding stability dG unfold from chymotrypsin proteolysis; higher = more stable
measured.quantity: folding stability dG unfold

Lookup: Look up folding stability dG unfold for this sequence: SAGGSAGGSAGMKVELSVAPDPATGEPVLLFHFEDFTLALNPNTGAIGVYLKDEVELFELSAGGSAGGSAGG [r17_544_TrMRF]
Found: 1.98 kcal/mol

Lookup: So what's the measured folding stability dG unfold for this one? SAGGSAGGSKPTLTLEIVLPPEMTLEQLEELARALAEELGLDEVEVRVERRPDGYLRITITVKSAGGSAGGS [r20_208_TrROS_Hall]
Found: 3.45 kcal/mol

Lookup: I am curious: what folding stability dG unfold value has been reported for SAGGSAGGSWIPLPDGYLIKITEVVPGGIRIKFPDMGNEITIPPGMPIKIKIIPVKDPDGEPISAGGSAGGS [r20_105_TrROS] ?
Found: 0.838 kcal/mol

Lookup: What value of folding stability dG unfold has been recorded for this entry: SAGGSAGGSAGKTLVFKTKEEALKAIEEEAKKKGYKKVKIEITEVGPDGKVKVKVKIEKKSAGGSAGGSAGG [r17_430_TrROS_Hall]
Found: 1.34 kcal/mol

Lookup: State the recorded folding stability dG unfold for this entry: SAGGSAGGSAGGSKTIEIELPGMSPEEIAAAIAEELGLDDVKITVERTEDGLLRVTIEVSAGGSAGGSAGGS [r4_408_TrROS_Hall]
Found: 1.81 kcal/mol

Lookup: Any idea what folding stability dG unfold was measured for SDEDLEILRVEATPDTIRILFKIPSNPDLYIEVPITVFEDETSRRILINARILRPETGEVIAEIPFEIPLSA [r9_18_TrMRF] ?
Found: 4.24 kcal/mol

Lookup: Param item = SAGGSAGGSAGGKTIVVELEDGSKATITVDEDGNVTVEVYDEKTGEKKTFTIPAEALKPSAGGSAGGSAGGS [r10_838_TrROS_Hall] ; retrieve measured folding stability dG unfold.
Found: 2.95 kcal/mol

----------
# assay.comment: folding stability dG unfold from chymotrypsin proteolysis; higher = more stable
measured.quantity: folding stability dG unfold (kcal/mol)
Note: unit kcal/mol is implicit; provide only the numeric part.

Lookup: # input sequence: SAGGSAGGSAGGSMLKGKIISVDPKKGYAIIYIPGKKKLLIIKFDPDNTIVEIKEAPLSSAGGSAGGSAGGS [r4_192_TrMRF] ; wanted: its folding stability dG unfold
Found: 2.21

Lookup: Entry under review: SAGGSAGGSAMKTIEIDIVIKNKETGEYYKAKAKIFENEDGSLIIEIEFEKNGKTLLIVLPPSAGGSAGGSA [r18_426_TrROS_Hall] . Reported folding stability dG unfold?
Found: 3.82

Lookup: // returns reported folding stability dG unfold for input SAGGSAGGSAGMEIEEKGDYLVIRIKVKEGETIELPEGWEVVDVEYDPETEEVTIVIRRKSAGGSAGGSAGG [r11_942_TrROS_Hall]
Found: 2.88

Lookup: Would you mind telling me what folding stability dG unfold value was observed for SMEISFTDPAEAEALLAEVKAKLKAELPPNTVVPITVRDAAGNPTTHPITITPEPPEVVYFTETGGTVLLSA [r9_596_JUSTAS] ?
Found: 1.57

Lookup: Look up folding stability dG unfold for this sequence: SAGGSAMSKDVLFENGARITKFFPGKNYVIIETSPENPELLKELGITVIKEGPNRIIVPAKDFLDESAGGSA [r15_984_TrMRF]
Found: -0.821

Lookup: Entry SMTTRESTIDASIPGYTVSKVSVTTLPGGERKITITLPSGKVLVLSTPADPALVPLTVTSEFSPEEVAAKSA [r9_1075_JUSTAS] has what folding stability dG unfold?
Found: 0.0702

Lookup: Which folding stability dG unfold is reported for this sequence? SAGGGLGADALAKKFKELFPNAKVEKLPNGKVLFYIPETGKLIEIYDLDDEQIIKIIDPNTPKVYIISAGGS [r16_478_TrMRF]
Found: 0.986

Lookup: Form field: reported folding stability dG unfold of SAGGSAGGSAGMKVIVLPVPPNADRVRITYEKGPTLEIEAREDEPVVIVAPENEFTVEVDSAGGSAGGSAGG [r11_52_TrMRF]
Found: -0.383

Lookup: Look up folding stability dG unfold for this sequence: SAGGSAGGSAGGLSPGDEIKIRIMIFYRDPGSGNMRPIQPFPITIKIEPPPPKPKDPNNNSAGGSAGGSAGG [r7_522_TrROS]
Found: 3.82

Lookup: Give the measured folding stability dG unfold of SAGGALKELPDGSVELYYNTETGLFTVRVRHPDKPPLVFTVESPEDALKFAKALEEKGIKIDKVVPAPSAGG [r13_727_TrMRF] .
Found: 1.86

Lookup: Entry under review: MMYLIRVTVYDEETEEEVEEIEILIELSEEELKNMSEEEREKLLEEALKKAEELAKEYPNLKIEVEIVELPS [r1_115_TrROS_Hall] . Reported folding stability dG unfold?
Found: 4.01

Lookup: State the recorded folding stability dG unfold for this entry: SAGGKKKYKLIIKIKFKKGDIDKAKKEVEAIANKIKDEFEKKGVKVKVKVSYDKDNDIVYIEVEFEVPSAGG [r13_755_TrMRF]
Found: 4.43

Lookup: Give the measured folding stability dG unfold of SAGGVEEAREALEEAGFEIVDVDEETGTVTVRNEETEETITVRVEAPAPPPVEVEEEVEVEEEEEEESAGGS [r16_197_TrROS_Hall] .
Found: 1.48

Lookup: # query: folding stability dG unfold of entry SAPKIEILEVDPNRVLIKIDATPEEIEKIVEEIKKKFPGVKVETEKLEGEKKYLIKVIPVPEVPEELKKSAG [r14_600_TrMRF]
Found: 1.44
